Molecular target: NOS1, P29475
Sequence (P29475 9-101): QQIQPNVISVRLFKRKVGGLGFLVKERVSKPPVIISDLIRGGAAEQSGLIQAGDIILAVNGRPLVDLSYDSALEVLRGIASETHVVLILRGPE
Test: holdup assay
Design: key: below the threshold = too weak to quantify, mostly under pKd 3.1 to 4
Conditions: plain residues with an end cap or a label only (N-terminal biotin on a linker: ado-ado)
Please provide measured pKd for the entries that follow.
Form rule: numeric answer, no unit written next to it.

Entry KIEDVEITLV [FCHSD2, O94868] — recorded pKd = 3.8

pKd reading for SQDPKKPSRV [CBY2, Q8NA61] : 3.76

For TKDKVQETQI [LRRC4, Q9HBW1] the binder record lists pKd as 4.02

The value of pKd measured for the binder GQNMTVSVVI [PRLHR, P49683] turned out to be 3.82

Documented pKd of HLSTRQGTCV [ATRNL1, Q5VV63] : 4.07

Form: binder = MQILSKPEFI [NPSR1, Q6W5P4] ; pKd = 3.84

The recorded pKd for entry EAVTVESTSL [SLC22A11, Q9NSA0] equals 3.5

For reference, reported pKd for QKNKDREYYV [NRXN3, Q9HDB5] stands at 4.11

For VYEVPVETKF [SLC26A3, P40879] the binder record lists pKd as 3.72

Field pKd (entry IGHEDLETAV [DGKI, O75912] ) reads 4.17

# binder QLKSGRDSTV [TMEM178A, Q8NBL3] ; its pKd = 3.52

Recorded pKd (binder PSVYSRSQYV [CLDN8, P56748] ): 3.99

For reference, reported pKd for GTMFLRETSL [GUCY1A2, P33402] stands at 3.84

Record summary for THHRKIHTRV [ZNF599, Q96NL3] : reported pKd = 4.02

In plain terms, STYCDYTIEI [FAM71C, Q8NEG0] has a documented pKd of 3.62
